Target: His-tagged human recombinant kinase full-length Akt1 (Homo sapiens (Human))
Sequence (P31749 whole entry): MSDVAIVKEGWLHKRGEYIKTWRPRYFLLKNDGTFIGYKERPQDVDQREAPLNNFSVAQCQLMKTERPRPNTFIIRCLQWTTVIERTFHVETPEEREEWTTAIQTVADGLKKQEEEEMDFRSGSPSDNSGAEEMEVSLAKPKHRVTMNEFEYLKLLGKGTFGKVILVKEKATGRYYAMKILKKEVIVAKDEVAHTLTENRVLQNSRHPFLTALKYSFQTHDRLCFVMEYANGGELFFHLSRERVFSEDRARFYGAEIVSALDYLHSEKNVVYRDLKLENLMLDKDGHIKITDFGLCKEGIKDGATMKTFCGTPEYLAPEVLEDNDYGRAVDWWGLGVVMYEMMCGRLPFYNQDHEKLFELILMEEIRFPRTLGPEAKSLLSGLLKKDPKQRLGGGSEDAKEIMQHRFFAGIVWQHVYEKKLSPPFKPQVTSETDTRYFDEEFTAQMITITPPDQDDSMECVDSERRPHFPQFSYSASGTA
Experiment: Akt1 kinase assay (TR-FRET)
Conditions: 10 μM ATP; read-out: Akt1, median IC50
pIC50: −log10 of the molar value.
Metric: pIC50

Worked examples follow.
>  <Molecule>
NC1(c2ccc(-c3nc4ccc(-c5cnc[nH]5)cn4c3-c3ccccc3)cc2)CCC1 [Example 2-129]

>  <pIC50>
6.71

$$$$
>  <Molecule>
CCNC(=O)c1ccc2nc(-c3ccc(C4(N)CCC4)cc3)c(-c3ccccc3)n2c1 [Example 2-62]

>  <pIC50>
6.42

$$$$
>  <Molecule>
NC1(c2ccc(-c3nc4c(Br)cc(Cl)cn4c3-c3ccccc3)cc2)CCC1 [Example 2-85]

>  <pIC50>
8.30

$$$$
>  <Molecule>
Cc1c(-c2ccn[nH]2)cn2c(-c3ccccc3)c(-c3ccc(C4(N)CCC4)cc3)nc2c1C [Example 2-89]

>  <pIC50>
6.48

$$$$
>  <Molecule>
NC1(c2ccc(-c3nc4ccc(Br)cn4c3-c3ccccc3)cc2)CCC1 [Example 2-139]

>  <pIC50>
7.36

$$$$
>  <Molecule>
NC1(c2ccc(-c3nc4ccc(C(=O)NCCF)cn4c3-c3ccccc3)cc2)CCC1 [Example 2-54]

>  <pIC50>
6.37

$$$$

[I] CC(=O)Nc1ccn2c(-c3ccccc3)c(-c3ccc(C4(N)CCC4)cc3)nc2c1 [Example 2-152]
[II] COc1ccn2c(-c3ccccc3)c(-c3ccc(C4(N)CCC4)cc3)nc2n1 [Example 2-0]
[III] C=Cc1ccn2c(-c3ccccc3)c(-c3ccc(C4(N)CCC4)cc3)nc2c1 [Example 2-108]
[IV] Cc1cc(-c2ccn[nH]2)c2nc(-c3ccc(C4(N)CCC4)cc3)c(-c3ccccc3)n2c1 [Example 2-92]
Hi! Can you put these in order of pIC50, lowest number first? Give your ranking as a list of the labels in the requested order. III, I, IV, II

[P] N#Cc1ccc2nc(-c3ccc(C4(N)CCC4)cc3)c(-c3ccccc3)n2c1 [Example 1-10]
[Q] COC(=O)c1cc(Cl)c2nc(-c3ccc(C4(N)CCC4)cc3)c(-c3ccccc3)n2c1 [Example 2-60]
[R] CC(=O)Nc1ccc2nc(-c3ccc(C4(N)CCC4)cc3)c(-c3ccccc3)n2c1 [Example 2-156]
[S] NC1(c2ccc(-c3nc4ccc(C(=O)NCCO)cn4c3-c3ccccc3)cc2)CCC1 [Example 2-55]
Provide the items ranked by increasing pIC50. Thanks in advance for listing the labels in the requested order. S, P, R, Q

[a] CN(C)C(=O)c1ccc2nc(-c3ccc(C4(N)CCC4)cc3)c(-c3ccccc3)n2c1 [Example 2-61]
[b] Cc1c(C(N)=O)cn2c(-c3ccccc3)c(-c3ccc(C4(N)CCC4)cc3)nc2c1C [Example 2-100]
# compare pIC50 for a vs b ; return the one with the smaller value Refer to your chosen item by its label in the answer. a

[a] NC1(c2ccc(-c3nc4cc(F)ccn4c3-c3ccccc3)cc2)CCC1 [Example 2-67]
[b] COc1ccc(COc2ccn3c(-c4ccccc4)c(-c4ccc(C5(N)CCC5)cc4)nc3n2)cn1 [Example 2-26]
// max by pIC50 over [ a , b ] Use the label to indicate which entry you chose. a
